From: ChEMBL document CHEMBL1201862

Test system: MDA-N
Assay text: NCI tumour cell line growth inhibition, 48 h
Activity calls are given as the source filed them. Rule as the data show it: active = GI50 up to about 1.1 µM and inactive = higher.
Assay metric: GI50

Compound: Brc1cc(CCOC2CCCCO2)c(-c2sccc2CCOC2CCCCO2)s1 (stereo unspecified)
GI50: 40.3 µM (inactive)
--
Compound: CC[C@@]1(O)C(=O)OCc2c1cc1n(c2=O)Cc2c-1nc1ccccc1c2/C=N\NC(=O)C(C)N (stereo partly specified)
GI50: 1.34 µM (inactive)
--
Compound: C=CCCON(C(=O)OC(C)(C)C)c1ccccc1
GI50: > 100 µM (inactive)
--
Compound: COC1Cc2c(C)c(OC(C)=O)c3cccnc3c2O1 (stereo unspecified)
GI50: 20.8 µM (inactive)
--
Compound: CC[C@H]1OC([C@H](O)C/C=C\C#C[Si](C)(C)C)C/C=C\C[C@H]1O[Si](C)(C)C(C)(C)C (stereo partly specified)
GI50: > 100 µM (inactive)

Turning now to a further record.
input: Which measured GI50 value corresponds to CC1(C)CC[C@]2(C(=O)O)CC[C@]3(C)C(=CC[C@@H]4[C@@]5(C)CC[C@H](OC6OC(C(=O)O)C(O)C(O)C6O)C(C)(C)[C@@H]5CC[C@]43C)[C@@H]2C1 (stereo partly specified) ?
output: 18.4 µM (inactive)
